Taken from ChEMBL document CHEMBL4373711.

- system: Decaprenylphosphoryl-beta-D-ribose oxidase (Mycobacterium tuberculosis (strain ATCC 25618 / H37Rv)) (UniProt P9WJF1)
- Sequence (P9WJF1 whole entry): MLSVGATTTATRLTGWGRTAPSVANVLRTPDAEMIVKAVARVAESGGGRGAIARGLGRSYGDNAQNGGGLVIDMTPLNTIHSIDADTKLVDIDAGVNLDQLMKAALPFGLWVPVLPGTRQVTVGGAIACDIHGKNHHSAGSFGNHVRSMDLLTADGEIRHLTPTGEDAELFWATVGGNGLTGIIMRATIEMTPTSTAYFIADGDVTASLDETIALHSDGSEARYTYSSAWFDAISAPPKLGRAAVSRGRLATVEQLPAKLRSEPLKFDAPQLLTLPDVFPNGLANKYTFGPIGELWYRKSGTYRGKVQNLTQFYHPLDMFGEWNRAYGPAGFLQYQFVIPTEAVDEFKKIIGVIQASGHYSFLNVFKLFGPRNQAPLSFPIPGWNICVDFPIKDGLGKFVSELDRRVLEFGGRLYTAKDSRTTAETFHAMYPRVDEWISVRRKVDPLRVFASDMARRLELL
- measurementDescription: Inhibition of DprE1 in Mycobacterium tuberculosis H37Rv assessed as accumulation of trehalose monomycolates at 10 times MIC measured after 24 hrs in presence of [14C]-acetate by TLC-based autoradiography
Activity calls are given as the source filed them. The rule behind the calls is not given here.
quantityKind: inhibition

Sample records with inhibition:
COc1ccc(CSc2nnc(-c3cc([N+](=O)[O-])cc([N+](=O)[O-])c3)n2Cc2ccccc2)cc1 :: inactive
O=[N+]([O-])c1cc(-c2nnc(SCc3ccccc3)n2Cc2ccccc2)cc([N+](=O)[O-])c1 :: inactive
COc1ccc(CSc2nnc(-c3cc([N+](=O)[O-])cc(C(F)(F)F)c3)n2Cc2ccccc2)cc1 :: Active
COc1ccc(Cn2c(SCc3cc([N+](=O)[O-])cc([N+](=O)[O-])c3)nnc2-c2ccccc2)cc1 :: inactive
C[C@H]1COC2(CCN(c3nc(=O)c4cc(C(F)(F)F)cc([N+](=O)[O-])c4s3)CC2)O1 :: Active
O=[N+]([O-])c1cc(-c2nnc(SCc3ccccc3)n2Cc2ccccc2)cc(C(F)(F)F)c1 :: Active

# return recorded inhibition for entry "CCCCCCn1c(SCc2cc([N+](=O)[O-])cc([N+](=O)[O-])c2)nnc1-c1ccccc1"
inactive

---

- measurementDescription: Selectivity index, ratio of IC50 for human A431 cells to MIC>99 for antimycobacterial activity against Mycobacterium kansasii CNCTC My 235/80 after 14 days
- Assay type: toxicity
- conditionSet: read-out: Selectivity Index
quantityKind: selectivity ratio at 336 h

# return recorded selectivity ratio at 336 h for entry "O=[N+]([O-])c1cc(-c2nnc(SCc3ccccc3)n2Cc2ccccc2)cc(C(F)(F)F)c1"
> 100

---

- system: Decaprenylphosphoryl-beta-D-ribose oxidase (Mycobacterium tuberculosis (strain ATCC 25618 / H37Rv))
- measurementDescription: Inhibition of DprE1 in Mycobacterium tuberculosis H37Rv assessed as accumulation of trehalose dimycolates at 10 times MIC measured after 24 hrs in presence of [14C]-acetate by TLC-based autoradiography
Calls of active or inactive are those of the source. The calls are words filed in the database; no cut-off is given here.
Lab note: assign the record to one of True for active, False for inactive

Solved entries (count: 6):
O=[N+]([O-])c1cc(-c2nnc(SCc3ccccc3)n2Cc2ccccc2)cc([N+](=O)[O-])c1 :: False
C[C@H]1COC2(CCN(c3nc(=O)c4cc(C(F)(F)F)cc([N+](=O)[O-])c4s3)CC2)O1 :: True
COc1ccc(CSc2nnc(-c3cc([N+](=O)[O-])cc([N+](=O)[O-])c3)n2Cc2ccccc2)cc1 :: False
CCCCCCn1c(SCc2cc([N+](=O)[O-])cc([N+](=O)[O-])c2)nnc1-c1ccccc1 :: False
COc1ccc(CSc2nnc(-c3cc([N+](=O)[O-])cc(C(F)(F)F)c3)n2Cc2ccccc2)cc1 :: True
COc1ccc(Cn2c(SCc3cc([N+](=O)[O-])cc([N+](=O)[O-])c3)nnc2-c2ccccc2)cc1 :: False

Below: the item to evaluate.
Please indicate how the test categorized "O=[N+]([O-])c1cc(-c2nnc(SCc3ccccc3)n2Cc2ccccc2)cc(C(F)(F)F)c1" .
True

---

- measurementDescription: Selectivity index, ratio of IC50 for human A431 cells to MIC>99 for antimycobacterial activity against Mycobacterium kansasii 6509/96 after 21 days
- Type: toxicity
- conditionSet: read-out: Selectivity Index
quantityKind: selectivity ratio at 504 h

# return recorded selectivity ratio at 504 h for entry "O=[N+]([O-])c1cc(-c2nnc(SCc3ccccc3)n2Cc2ccccc2)cc(C(F)(F)F)c1"
> 100
